target: Hepatocyte growth factor receptor (Homo sapiens)
measured_attribute: pIC50
Kindly note that pIC50 refers to -log10 of the concentration in mol/L and answer with the value alone.

Worked examples, 3 molecules total:
{"test_smiles": "COc1cc2c(Oc3ccc(N=Cc4c(O)n(-c5ccc(F)cc5F)c(=O)[nH]c4=O)cc3F)ccnc2cc1OCCCN1CCCC1", "obs_value": 7.92}
{"test_smiles": "COc1cc2c(Oc3ccc(N=Cc4c(O)n(-c5ccc(F)cc5F)c(=O)[nH]c4=O)cc3F)ccnc2cc1OCCCN1CCOCC1", "obs_value": 7.92}
{"test_smiles": "COc1cc2c(Oc3ccc(N=Cc4c(O)n(-c5ccc(C)cc5)c(=O)[nH]c4=O)cc3F)ccnc2cc1OCCCN1CCN(C)CC1", "obs_value": 8.57}

Now look at this one.
Record summary for COc1cc2c(Oc3ccc(N=Cc4c(O)n(-c5ccc(F)cc5)c(=O)[nH]c4=O)cc3F)ccnc2cc1OCCCN1CCCC1 : reported pIC50 = 8.57
